Just for reference, PubChem BioAssay (NCI) is where these values come from.

test: NCI Yeast Anticancer Drug Screen. Data for the sgs1 mgt1 strain (AID 161);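 also: 0% = growth of cultures given vehicle only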; settings: S. cerevisiae sgs1 mgt1 strain; at 50.0 µM unless noted
This is part of a sample that, as a whole, favours compounds with a hit. Of some 79,000 tested, about 15% had one in any assay. The source made the active and inactive calls. Rule as the data show it: active = growth inhibition above about 70%; inactive = the rest.
Classes used: yes (1) = active, no (0) = inactive

compound="O=c1[nH]c(=O)n(C2OC(CO)C(O)C2Br)cc1Br (stereo not given)" discrete_label="no (0)"
compound=O=C(O)CCC1=Nc2cccc3cccc(c23)NC1=O discrete_label="no (0)"
compound=C=C(NC(=O)C(c1ccccc1)c1ccccc1)C(=O)O discrete_label="no (0)"
compound=Cc1ccc2[nH]c(=O)[nH]c(=O)c2c1 discrete_label="no (0)"
compound=CCOC(=O)c1nc2ccccc2nc1NCc1cc(OC)c(OC)c(OC)c1 discrete_label="no (0)"
compound="CC(C)OC(=O)C(O)c1ccccc1 (stereo not given)" discrete_label="no (0)"
compound=CS1(C)=Nc2c([N+](=O)[O-])cc([N+](=O)[O-])cc2S(=O)(=O)N=1 discrete_label="no (0)"
compound=N#Cc1ccc(/C=C(/C(=O)c2ccccc2)c2ccccc2)cc1 discrete_label="no (0)"
compound=O=C(O)CCSCCC(=O)O discrete_label="no (0)"
compound=O=C1CN(Cc2ccc3c(c2)OCO3)NO1 discrete_label="no (0)"
compound=O=C(CCC(=O)Nc1ccc(Cl)c(Cl)c1)Cc1nc2ccccc2o1 discrete_label="no (0)"
compound=CC(=O)C1=CCCCC1 discrete_label="no (0)"
compound=Cc1sc2ccccc2[n+]1CCC(=O)O discrete_label="no (0)"
compound="COC(=O)C1=CO[C@@H](OC2OC(CO)C(O)C(O)C2O)[C@H]2[C@@H]1C=C[C@@]21C=C([C@H](C)OC(=O)/C=C/c2ccc(OC3OC(CO)C(O)C(O)C3O)cc2)C(=O)O1 (stereo not given in full)" discrete_label="no (0)"
compound=Cc1cc(=O)c2c(o1)C(=O)c1occc1C2=O discrete_label="no (0)"
compound="c1nc2c([nH]1)CCNC2c1ccc(C2NCCc3[nH]cnc32)cc1 (stereo not given)" discrete_label="no (0)"
compound="COC(=O)C1CCCCCCCCCCC12SCCCS2 (stereo not given)" discrete_label="no (0)"
compound=COc1ccc2[nH]c3c(=O)[nH]ncc3c2c1 discrete_label="no (0)"
compound=COc1ccc2c(c1)c(COC(C)=O)c(C)c[n+]2[O-] discrete_label="no (0)"
compound=CN1CCC/C1=N\C(=Nc1ccccc1)N1CCCC1 discrete_label="no (0)"
compound=O=c1[nH]cc(Br)c(=O)[nH]1 discrete_label="no (0)"
compound=COC(=O)/C(=C(\C)NC(C)=O)c1c(C(=O)OC)[nH]c2ccccc12 discrete_label="no (0)"
compound=Cn1c(=S)[nH]c2c(Cl)cc(Cl)cc2c1=O discrete_label="no (0)"
compound="ON=C1CCC(c2ccccc2)CC1 (stereo not given)" discrete_label="no (0)"
compound=Nc1cnccc1N1CCN(c2cccc3ccccc23)CC1 discrete_label="yes (1)"
